tested.on: DNMT3B catalytic domain (mouse)
protocol.text: relative CpG methylation activity (normalised to average over all NNNCGNNN flanks) (relative (1 = mean)); higher = more methylation of the central CpG
applied.conditions: system: in vitro, murine catalytic domain; CpG state: hemimethylated substrate pool; residues: 558-859
The full ranking holds about 4,100 sequences; the median of “relative CpG methylation activity (normalised to average over all NNNCGNNN flanks)” is about 0.94, and the highest 2% start at about 1.9. This excerpt belongs to a sample that is enriched for the highest values.
observable: relative CpG methylation activity

Measured relative CpG methylation activity (DNMT3B catalytic domain (mouse)), entry ATACGAGA : 1.82

Measured relative CpG methylation activity (DNMT3B catalytic domain (mouse)), entry CCTCGCCA : 1.05

Measured relative CpG methylation activity (DNMT3B catalytic domain (mouse)), entry TTACGGAA : 1.64

Measured relative CpG methylation activity (DNMT3B catalytic domain (mouse)), entry ATCCGCCG : 0.929

Measured relative CpG methylation activity (DNMT3B catalytic domain (mouse)), entry ATACGGCC : 2.01

Every entry's value here was drawn from the supplement of paper PMC7335073.
